# assay comment: self-splicing fitness, log relative to wild type (ln ratio); higher = more splicing; Tetrahymena group I intron in knt gene, E. coli kanamycin selection, DiMSum; sequences stand for … in CUCUCU…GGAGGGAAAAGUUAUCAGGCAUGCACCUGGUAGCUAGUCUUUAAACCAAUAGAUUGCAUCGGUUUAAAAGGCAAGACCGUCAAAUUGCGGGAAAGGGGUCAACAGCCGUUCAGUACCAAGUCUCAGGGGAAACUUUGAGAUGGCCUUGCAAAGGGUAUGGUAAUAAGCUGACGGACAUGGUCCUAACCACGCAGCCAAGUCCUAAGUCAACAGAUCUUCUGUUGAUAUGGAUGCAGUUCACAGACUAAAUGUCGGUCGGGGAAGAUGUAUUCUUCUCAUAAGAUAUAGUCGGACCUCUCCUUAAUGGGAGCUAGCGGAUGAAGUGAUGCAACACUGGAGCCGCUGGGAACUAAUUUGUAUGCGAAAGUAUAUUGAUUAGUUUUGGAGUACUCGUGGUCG;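 also: selection with 25 µg/mL kanamycin versus none on LB agar overnight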
# assay setup: 37 °C
Respond with True for self-splicing fitness (ln) values of -2 and above, False for values below.

polymer sequence	assigned class
UCCCAGCAAUAUUACGUGAU	True
GAAUAGCAAUAUUACGAACC	True
ACUCAGCAAUAUUACGGAUA	True
CUCCAGCAAUAUUACGAGCG	False

For the next question, use this sequence.
Textbook exercise: given the entry AAUAAGCAAUAUUACGGAUA , state whether its self-splicing fitness (ln) is greater than or equal to -2.
True

====

# assay comment: self-splicing fitness, log relative to wild type (ln ratio); higher = more splicing; Tetrahymena group I intron in knt gene, E. coli kanamycin selection, DiMSum; sequences stand for … in CUCUCU…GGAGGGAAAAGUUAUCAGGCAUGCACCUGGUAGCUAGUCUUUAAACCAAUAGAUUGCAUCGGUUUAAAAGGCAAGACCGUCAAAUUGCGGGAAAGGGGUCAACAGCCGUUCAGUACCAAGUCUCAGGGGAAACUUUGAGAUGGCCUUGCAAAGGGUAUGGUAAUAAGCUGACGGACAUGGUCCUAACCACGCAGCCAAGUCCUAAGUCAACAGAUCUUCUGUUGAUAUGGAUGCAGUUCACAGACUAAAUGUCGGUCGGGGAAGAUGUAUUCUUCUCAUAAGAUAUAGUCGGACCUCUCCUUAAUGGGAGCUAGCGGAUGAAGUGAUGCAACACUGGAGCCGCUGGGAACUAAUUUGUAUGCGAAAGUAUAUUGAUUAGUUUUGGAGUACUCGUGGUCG
# assay setup: 30 °C
parameter: self-splicing fitness (ln)

Look over these answered cases.
polymer sequence	self-splicing fitness (ln)
UGGUAGCAAUAUUACGUCUU	-0.526
AGAGAGCAAUAUUACGCGAC	-2.11

Tell me the measured self-splicing fitness (ln) of AGCGAGCAAUAUUACGAGAU , please.
-4.2

Item ACACAGCAAUAUUACGCAAG has what recorded self-splicing fitness (ln)?
-1.7

# lookup: self-splicing fitness (ln) of UUGUAGCAAUAUUACGCGCU
-2.05

Recorded self-splicing fitness (ln) for CUCCAGCAAUAUUACGCUCG , please?
-3.69

What value of self-splicing fitness (ln) has been reported for the following sequence? CGCUAGCAAUAUUACGUGGA
-3.16

# lookup: self-splicing fitness (ln) of ACGAAGCAAUAUUACGGACC
-0.399

May I ask what self-splicing fitness (ln) has been recorded for AAGCAGCAAUAUUACGUUGC ?
-2.46

self-splicing fitness (ln) lookup needed for GACAAGCAAUAUUACGAACC , thanks.
-1.06

// returns reported self-splicing fitness (ln) for input GGACAGCAAUAUUACGCAAU
-0.155
